Tested on: Pseudomonas aeruginosa
Test: Antibacterial activity against Pseudomonas aeruginosa expressing AmpC
Assay type: functional
property: log10 of MIC (log10 of the value in µg/mL)
Short version: log10 scale, MIC, µg/mL.

// recorded log10 of MIC for `O=C([O-])C1=CS[C@@H]2/C(=C\c3cc4n(n3)CCOC4)C(=O)N12.[Na+]` : 0.30

// recorded log10 of MIC for `O=C([O-])C1=CS[C@@H]2/C(=C\c3cc4n(n3)CCCC4)C(=O)N12.[Na+]` : 0.60

// recorded log10 of MIC for `O=C([O-])C1=CS[C@@H]2/C(=C\c3cc4n(n3)CCS(=O)(=O)C4)C(=O)N12.[Na+]` : 0.30

// recorded log10 of MIC for `COc1ccc(CN2CCc3sc(/C=C4/C(=O)N5C(C(=O)[O-])=CS[C@H]45)cc3C2)cc1.[Na+]` : 1.51

// recorded log10 of MIC for `C[C@]1(Cn2ccnn2)[C@H](C(=O)O)N2C(=O)C[C@H]2S1(=O)=O` : 1.81

// recorded log10 of MIC for `O=C([O-])C1=CS[C@@H]2/C(=C\c3cc4n(n3)CCSC4)C(=O)N12.[Na+]` : 0.30

// recorded log10 of MIC for `O=C([O-])C1=CS[C@@H]2/C(=C\c3cc4n(n3)CCNC4)C(=O)N12.[Na+]` : -0.30

// recorded log10 of MIC for `O=C([O-])C1=CS[C@@H]2/C(=C/c3cn4c(n3)CSCC4)C(=O)N12.[Na+]` : 1.81

// recorded log10 of MIC for `O=C([O-])C1=CS[C@@H]2/C(=C/c3cn4c(n3)CNCC4)C(=O)N12.[Na+]` : 1.20

// recorded log10 of MIC for `O=C([O-])C1=CS[C@@H]2/C(=C\c3cc4c(s3)CCN(Cc3cccnc3)C4)C(=O)N12.[Na+]` : 1.81

// recorded log10 of MIC for `O=C([O-])C1=CS[C@@H]2/C(=C/c3cn4c(n3)COCC4)C(=O)N12.[Na+]` : 0.00

// recorded log10 of MIC for `O=C([O-])C1=CS[C@@H]2/C(=C\c3cn4c(n3)CSCC4)C(=O)N12.[Na+]` : 0.90

// recorded log10 of MIC for `O=C([O-])C1=CS[C@@H]2/C(=C\c3cc4n(n3)CCCO4)C(=O)N12.[Na+]` : 0.00

// recorded log10 of MIC for `CN1CCn2cc(/C=C3/C(=O)N4C(C(=O)[O-])=CS[C@H]34)nc2C1.[Na+]` : 0.60

###

property: pIC50
The read-out pIC50 is expressed as -log10 of concentration in moles per litre.

I looked up `O=C([O-])C1=CS[C@@H]2/C(=C\c3cc4n(n3)CCCO4)C(=O)N12.[Na+]` and its pIC50 for Beta-lactamase (Enterobacter cloacae) was 8.30

I looked up `O=C([O-])C1=CS[C@@H]2/C(=C/c3cn4c(n3)COCC4)C(=O)N12.[Na+]` and its pIC50 for Beta-lactamase (Enterobacter cloacae) was 8.30

I looked up `O=C([O-])C1=CS[C@@H]2/C(=C\c3cc4n(n3)CCSC4)C(=O)N12.[Na+]` and its pIC50 for Beta-lactamase (Enterobacter cloacae) was 9.00

Data origin: ChEMBL document CHEMBL1137415
